# System: NCI-H23 lung
# ASSAY_SUMMARY: NCI-60 one-dose screen, 48 h
# TEST_SETTINGS: 10 µM unless noted
The panel holds about 83,000 compounds, 20% with a hit somewhere; the sample as a whole holds those more often. The source made the active and inactive calls. How the source made its calls: active means growth percent below 10; inactive means the rest.
Thanks in advance; please answer with one of these: true (1) = active, false (0) = inactive

Past entries and their recorded results:
Cc1cc(=O)oc2cc(OC(=O)N3CCN(C)CC3)ccc12 : false (0)
COc1ccc(C(=O)C(C)C)c2ccccc12 : false (0)
CCCCOc1nc2c(C)cccc2cc1-c1cc(-c2ccc(Cl)cc2)nc(-c2ccc(Cl)cc2)c1 : false (0)

Next compound, please.
Task: How was `C#Cc1cccc(NC(=O)Nc2ccccc2NC(=O)CCl)c1` classified in this test?
Output: true (1)

---

# Tested on: HCC-2998 colon
# ASSAY_SUMMARY: NCI-60 one-dose screen, 48 h
# TEST_SETTINGS: 10 µM unless noted
About 83,000 compounds went through this panel and 20% of them were active in at least one assay; those are over-represented in the sample as a whole. The source made the active and inactive calls. The calls were made as follows: active = growth percent below 10; inactive = the rest.
Outcome (select one): active, inactive

Worked examples, 5 compounds total:
C=CCNc1ccc2c3c(cccc13)C(=O)N(N1C(=O)c3cccc4cccc(c34)C1=O)C2=O : inactive
CCOc1ccc2nc(SCc3nc4n(n3)S(=O)(=O)c3ccccc3N4C)sc2c1 : inactive
c1cc2nc(-c3cn[nH]c3)c3c(c2cc1-c1cn[nH]c1)C1CCC3C1 (configuration not stated) : inactive
N[C@@H](Cc1ccccc1)[C@@H](O)C(=O)NCc1ccc(F)cc1 : inactive
c1ccc(-c2nc3nonc3nc2-c2ccccc2)cc1 : inactive

Task: Just curious, what result did `CCCCCCn1c(-c2ccc(C(=O)O/N=C(\N)c3ccc4c(c3)OCO4)cc2)nc(-c2ccccc2)c1-c1ccccc1` get here?
Output: inactive

Task: Hello, I am checking results. What call was entered for Cc1cccc2c3c(sc12)C(c1ccc(Cl)cc1)C(C#N)=C(N)O3 (configuration not stated) ?
Output: inactive

Task: I'd appreciate the recorded outcome for `COc1cc2cc(Oc3ccc(NC(=O)Nc4cccc(C(F)(F)F)c4)cc3)c(C)nc2cc1OCCN1CCOCC1` from this test.
Output: inactive

Task: Hello, I am checking results. What call was entered for `CSc1ccc2c(c1)c(CCN)c(C)n2Cc1ccc(Cl)c(Cl)c1` ?
Output: active

---

# System: CAKI-1 renal
# ASSAY_SUMMARY: NCI-60 one-dose screen, 48 h (100 = growth as untreated, 0 = no growth, -100 = all killed)
# TEST_SETTINGS: 10 µM unless noted
Compounds without any hit were thinned out: in the full panel of roughly 83,000, 20% have a hit.
Please respond with condition met when measured growth is strictly beneath 90%, and with condition not met in all other cases.

// known answers, use as guide
CCCCCCNC(=O)Oc1ccc(/C(=C(\C)c2ccc(Cl)cc2)c2ccc(OCCCN(C)C)cc2)cc1 : condition not met
CCOC(=O)c1sc2ncc(-c3ccc(OC)cc3)n2c1C : condition not met
COc1ccc(-c2nnc(COc3ccc(Cl)cc3Cl)o2)cc1OC : condition met
CCOC(=O)c1nc(Nc2ccc(C(C)=O)cc2)sc1C : condition not met
CN1CCN(c2ccc(-c3cc4c(Nc5ccc(F)c(Cl)c5)ncnn4c3)cc2)CC1 : condition met

In the following, a different compound is considered.
Task: Consider OC(c1ccccc1)C(NC(Cc1ccccc1)c1ccccc1)c1ccccc1 (stereo unspecified) . Does its growth lie strictly below 90%?
Output: condition met

---

# System: MDA-MB-435 melanoma
# ASSAY_SUMMARY: NCI-60 one-dose screen, 48 h (100 = growth as untreated, 0 = no growth, -100 = all killed)
# TEST_SETTINGS: 10 µM unless noted
This is part of a sample that, as a whole, favours compounds with a hit. Of some 83,000 tested, about 20% had one in any assay.
// reported growth per item
Unit % implied. Number only.

The following compounds have reported results that may help.
COc1ccc2c(c1)c(-c1nn3cc(-c4cccs4)nc3s1)cn2C : 87.6
c1cc(NCCc2ccncc2)nc(-n2cnc3ccccc32)c1 : 95.8
COc1ccc(C2CC(c3ccc(Nc4nc(Nc5ccc(F)cc5)nc(Nc5ccc(Cl)cc5)n4)cc3)=NN2C(C)=O)cc1 (stereo unspecified) : 97.1
CCCCCCNC(=O)Oc1ccc(/C(=C(\C)c2ccc(Cl)cc2)c2ccc(OCCN3CCCCC3)cc2)cc1 : 52.6

The record that follows has no growth shown yet.
Lookup result for `CN1CCN(c2ccc(-c3cnc4c(-c5csc6ccccc56)cnn4c3)cc2)CC1` ; measured growth: -46.1

---

# Test system: MDA-MB-435 melanoma
# ASSAY_SUMMARY: NCI-60 one-dose screen, 48 h (100 = growth as untreated, 0 = no growth, -100 = all killed)
# TEST_SETTINGS: 10 µM unless noted
Compounds without any hit were thinned out: in the full panel of roughly 83,000, 20% have a hit.
METRIC_NAME: growth (%)
Write the answer as a number in %, unit excluded.

c1ccc(-c2nc3sc(-c4ccccc4)cn3n2)cc1 : 99.2
Cc1cc(=O)oc2cc(OC(=O)N3CCN(C)CC3)ccc12 : 101
CCCCC1CCCC12NC(=O)NC2=O (stereo not given) : 109
Cc1nc2nc(SCC(=O)O)[nH]c2c(=O)[nH]1 : 107

# evaluate next
Entry `NS(=O)(=O)c1ccc(N=Nc2ccc(-c3nn4cc(-c5ccccc5)nc4s3)cc2)cc1` : growth on MDA-MB-435 melanoma = 101

---

# Test system: HS 578T breast
# ASSAY_SUMMARY: NCI-60 one-dose screen, 48 h (100 = growth as untreated, 0 = no growth, -100 = all killed)
# TEST_SETTINGS: 10 µM unless noted
The panel holds about 83,000 compounds, 20% with a hit somewhere; the sample as a whole holds those more often. Calls of active or inactive are those of the source. Rule for the calls: active = growth percent below 10; inactive = the rest.
METRIC_NAME: growth

CCCCCCNC(=O)Oc1ccc(/C(=C(\C)c2ccc(Cl)cc2)c2ccc(OCCN(CC)CC)cc2)cc1 : 67.5% (inactive)
CCCCCCn1c(-c2ccc(C(=O)O/N=C(\N)c3ccc4ccccc4c3)cc2)nc(-c2ccccc2)c1-c1ccccc1 : 46.8% (inactive)

Next molecule, growth to be filled in.
Note to self: growth recorded for `CC(=O)O.CN1[CH-]N(Cc2ccc(C#N)cc2)c2ccccc21.[Ag+]` was 103% (inactive)

---

# System: IGROV1 ovarian
# ASSAY_SUMMARY: NCI-60 one-dose screen, 48 h (100 = growth as untreated, 0 = no growth, -100 = all killed)
# TEST_SETTINGS: 10 µM unless noted
# Protocol: Growth inhibition of the IGROV1 human tumor cell line is measured as a screen for anti-cancer activity. Cells are grown in 96 well plates and exposed to the test compound for 48 hours. Compounds are tested at a single concentration, which is 10^-5 M for most compounds. The reported endpoint is percent growth (GI% or GIPRCNT), where numbers from 0 - 100% represent growth inhibition, and numbers from -100% - 0 represent cell death. For example, a value of 40 represents 60% growth inhibition. […]
Compounds without any hit were thinned out: in the full panel of roughly 83,000, 20% have a hit. Active and inactive are the calls of the source. Rule for the calls: active = growth percent below 10; inactive = the rest.
METRIC_NAME: growth

Example entries begin here.
COc1ccc(NC2=C(Br)C(=O)C(C)=C(C)C2=O)cc1 : 41.3% (inactive)
NCCCNc1nc2ccccc2c2c(=O)c3cc(F)cc(Cl)c3sc12 : 80% (inactive)
C[C@H](C(=O)Nc1ccc(S(N)(=O)=O)cc1)S(=O)(=O)c1ccccc1 : 98.9% (inactive)
NCCNc1nc2ccccc2c2c(=O)c3cccc(F)c3sc12 : 48% (inactive)
NCCOc1ncccc1/C=C1\c2ccccc2-c2ccc(C(F)F)cc21 : 32.5% (inactive)
COc1ccc(/C=N/Nc2cc(=O)[nH]c3ccc(Cl)cc23)cc1 : 75.7% (inactive)
O=C(/C=C/c1cccc2ccccc12)c1ccc(NC(=O)c2ccccc2CN2C(=O)c3ccccc3C2=O)cc1 : 79.1% (inactive)
NCCCNc1nc2ccc(Cl)cc2c2c(=O)c3cc(F)ccc3sc12 : 52.8% (inactive)
Cc1c(C(=O)NCCN2CCOCC2)cn2ncnc(Oc3ccc(NC(=O)Nc4ccc(Cl)c(C(F)(F)F)c4)cc3)c12 : 39.3% (inactive)
CSc1nc2ccc(C)cc2cc1/C=N/O : 87.8% (inactive)

Item: `Cc1cccc(NC2=C(Cl)C(=O)c3nc(C)ccc3C2=O)c1` | growth: -54.1% (active)

Please fill in: growth reported for C=C1C(=O)O[C@H]2[C@H]1CC/C(COC(=O)C(C)c1ccc(CC(C)C)cc1)=C\CC[C@@]1(C)O[C@@H]21 (stereo partly drawn) = -69% (active)

The compound `COc1cc(/C=C/c2ccccc2)cc(OC)c1` showed growth equal to 84.6% (inactive)

Lab note: measured growth of COc1ccc(C2NC(=O)C(C#N)c3c2sc2c(F)cccc32)c(OC)c1 (stereo not drawn) was 52.7% (inactive)

So, `COc1cc2cc(Oc3ccc(NC(=O)Nc4ccc(Cl)c(C(F)(F)F)c4)cc3)c(C)nc2cc1OCCN1CCOCC1` ? Its growth was 34.7% (inactive)

// field: growth; key: `COc1cc(C(=O)c2cc(C)c3[nH]c4ccc(O)cc4c3c2C)cc(OC)c1OC` ; value = 12.1% (inactive)

Entry under test: `COc1cc(C(=O)/C=C/c2c(Cl)nc3sccn23)cc(OC)c1OC` . Its growth was 79.8% (inactive)

compound `CNC(=O)c1cc(-n2ccc3cc(NC(=O)c4ccc(N5CCOCC5)c(C(F)(F)F)c4)ccc32)ccn1` , growth observed: 77.7% (inactive)

Measured growth, `O=c1ccc(N=Nc2ccc([N+](=O)[O-])cc2)ccc1O` : 21.4% (inactive)

Per the records, this compound ( `COc1cc2cc(Oc3ccc(NC(=O)Nc4cccc(C(F)(F)F)c4)cc3)c(C)nc2cc1OCCN1CCOCC1` ) has growth equal to 57.7% (inactive)

So for `NS(=O)(=O)c1ccc(-n2nc(-c3ccc(Cl)cc3)c3ccccc3c2=O)cc1` , the logged growth turned out to be 75.5% (inactive)

// `COc1ccc(C2=Nn3c(nnc3-c3cc(Cl)cc(Cl)c3Cl)SC2)cc1` : growth value = -11% (active)

Short answer for `c1cc(NCCc2ccncc2)nc(-n2cnc3ccccc32)c1` : growth was 73.1% (inactive)
